# System tested: AuroraA-TPX2 (Homo sapiens, UniProt O14965)
# Construct: 20 μL of AuroraA-TPX2 KD GST; GST
# Sequence (O14965 133-383 limits assumed): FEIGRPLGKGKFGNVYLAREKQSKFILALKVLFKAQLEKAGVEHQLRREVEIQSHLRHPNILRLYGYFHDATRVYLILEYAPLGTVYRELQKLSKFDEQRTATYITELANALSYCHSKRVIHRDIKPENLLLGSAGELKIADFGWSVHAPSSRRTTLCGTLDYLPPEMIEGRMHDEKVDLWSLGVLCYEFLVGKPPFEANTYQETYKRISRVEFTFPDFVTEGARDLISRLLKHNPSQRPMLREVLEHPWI
# Sequence (Q9ULW0 1-43 partner limits assumed): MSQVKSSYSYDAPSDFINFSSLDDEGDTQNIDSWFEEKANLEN
# Assay method text: AuroraA-TPX2 Homogeneous Time Resolved Fluorescent (HTRF) kinase assay
# Type: biochemical
# Experimental parameters: class symbols; read-out: AurA/TPX2_IC50_IP (Avg)
pIC50: −log10 of the molar value.
Experimental readout: pIC50

{"Smiles code": "COc1cccc(-c2nnc(Nc3ccc(Oc4ncccc4-c4ccnc(N)n4)cc3)c3ccccc23)c1", "Observed measurement": "≥ 7.00"}
{"Smiles code": "COCc1cccc(-c2nnc(Nc3ccc(Oc4ncccc4-c4ccnc(N)n4)cc3)c3ccccc23)n1", "Observed measurement": "≥ 7.00"}
{"Smiles code": "COc1ccccc1-c1nnc(Nc2ccc(Oc3ncccc3-c3ccnc(N)n3)nc2)c2ccccc12", "Observed measurement": "≥ 7.00"}
{"Smiles code": "Nc1nccc(-c2cccnc2Oc2ccc(Nc3nnc(-c4ccccc4)c4ccccc34)cn2)n1", "Observed measurement": "≥ 7.00"}
{"Smiles code": "N#Cc1cccc(-c2ccncc2)c1Oc1ccc(Nc2nnc(-c3ccccc3)c3ccccc23)cc1", "Observed measurement": "6.30 to 7.00"}
{"Smiles code": "Cc1csc(-c2cc(C)c(Nc3ccc(Oc4ncccc4-c4ccncc4)cc3)nn2)c1", "Observed measurement": "≥ 7.00"}
{"Smiles code": "Cc1csc(-c2cc(C)c(Nc3ccc(Oc4ncccc4-c4ccnc(N)c4)cc3)nn2)c1", "Observed measurement": "≥ 7.00"}
{"Smiles code": "Cc1cc(-c2ccccc2)nnc1Nc1ccc(Oc2ncccc2-c2ccnc(NCCCC(=O)O)n2)cc1", "Observed measurement": "≥ 7.00"}
{"Smiles code": "COc1cccc(-c2nnc(Nc3ccc(Oc4ncccc4-c4ccnc(N)c4)cc3)c3ccccc23)c1", "Observed measurement": "6.30 to 7.00"}
{"Smiles code": "COc1cccc(-c2cc(C)c(Nc3ccc(Oc4ncccc4-c4ccnc(N)n4)cc3)nn2)c1", "Observed measurement": "≥ 7.00"}

Recorded pIC50 for CC(C)c1nnc(Nc2ccc(Oc3ncccc3-c3ccnc(N)n3)nc2)c2ccccc12 , please? 6.30 to 7.00

Likewise for Cc1cc(-c2ccccc2)nnc1Nc1ccc(Oc2ncccc2-c2ccnc(N)c2)cc1 ? ≥ 7.00

----------
# System tested: AuroraA-TPX2 (Homo sapiens, UniProt O14965)
# Construct: 20 μL of AuroraA-TPX2 KD GST; GST
# Sequence (O14965 133-383 limits assumed): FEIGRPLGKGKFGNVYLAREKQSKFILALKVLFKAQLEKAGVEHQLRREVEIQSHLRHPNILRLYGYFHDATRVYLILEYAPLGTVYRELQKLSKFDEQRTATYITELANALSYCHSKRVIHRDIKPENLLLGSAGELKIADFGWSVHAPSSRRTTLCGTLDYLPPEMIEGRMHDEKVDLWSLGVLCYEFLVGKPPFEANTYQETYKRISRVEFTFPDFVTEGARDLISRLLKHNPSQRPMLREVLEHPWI
# Sequence (Q9ULW0 1-43 partner limits assumed): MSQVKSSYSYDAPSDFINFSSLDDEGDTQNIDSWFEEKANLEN
# Assay method text: AuroraA-TPX2 Homogeneous Time Resolved Fluorescent (HTRF) kinase assay
# Type: biochemical
# Experimental parameters: numeric values, unit inferred; read-out: AurA/TPX2_IC50_IP (Avg)
pIC50: −log10 of the molar value.
Label true when pIC50 >= 7; otherwise false.

Some entries whose results are on file:
{"Smiles code": "COc1ccccc1-c1nnc(Nc2ccc(Oc3ncccc3-c3ccnc(N)c3)cc2)c2ccccc12", "Assigned category": "false"}
{"Smiles code": "CCCc1cc(-c2ccccc2)nnc1Nc1ccc(Oc2ncccc2-c2ccnc(N)n2)cc1", "Assigned category": "true"}
{"Smiles code": "CCc1cc(-c2ccccc2)nnc1Nc1ccc(Oc2ncccc2-c2ccnc(N)c2)cc1", "Assigned category": "true"}

Then this compound:
Has Cc1csc(-c2nnc(Nc3ccc(Oc4ncccc4-c4ccnc(N)c4)cc3)c3ccccc23)c1 a recorded pIC50 greater than or equal to 7? true
